- tested_system: GCase (Homo sapiens, UniProt P04062)
- Construct: endogenous in cells; host or cells: HeLa cells
- Sequence (P04062 40-536): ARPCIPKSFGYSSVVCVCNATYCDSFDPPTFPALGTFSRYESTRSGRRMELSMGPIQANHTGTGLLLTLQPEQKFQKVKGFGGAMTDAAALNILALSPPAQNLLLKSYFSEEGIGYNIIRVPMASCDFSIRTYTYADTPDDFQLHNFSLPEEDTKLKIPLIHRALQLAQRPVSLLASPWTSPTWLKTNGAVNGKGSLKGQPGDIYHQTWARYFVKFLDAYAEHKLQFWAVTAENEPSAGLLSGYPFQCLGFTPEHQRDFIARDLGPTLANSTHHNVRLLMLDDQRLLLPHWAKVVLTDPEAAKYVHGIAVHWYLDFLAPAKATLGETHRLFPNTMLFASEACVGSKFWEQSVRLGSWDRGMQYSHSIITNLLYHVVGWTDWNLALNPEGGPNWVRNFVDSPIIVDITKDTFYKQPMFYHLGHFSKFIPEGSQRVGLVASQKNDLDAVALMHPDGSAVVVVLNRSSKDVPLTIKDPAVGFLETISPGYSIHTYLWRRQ
- assay_info: activation of GCase in a live cell PFB assay in HELA cells
- Format: cell-based
- protocol_conditions: EC50 given as range classes
measured_endpoint: EC50

Below, 3 compounds whose answers are already recorded.
Report EC50 on GCase (Homo sapiens, UniProt P04062) for this entry: `Cc1nc(N2CC3(CCN(c4ncc5cnn(C6COC6)c5n4)C3)C2)cc(C(F)(F)F)n1`
10 to 50 µM

Report EC50 on GCase (Homo sapiens, UniProt P04062) for this entry: `FC(F)Cn1ncc2ncc(N3CCC4(CCCN(c5ccc(C(F)(F)F)nc5)C4)CC3)nc21`
10 to 50 µM

Report EC50 on GCase (Homo sapiens, UniProt P04062) for this entry: FC(F)Cn1ncc2ncc(N3CCC4(CCCN4c4ccnc(C(F)(F)F)c4)C3)nc21 (centres unmarked)
> 100 µM

Please state, for each entry, its recorded EC50.
1. O=S(=O)(CCC(F)(F)F)N1CC2(CCN(c3cnc4cnn(CC(F)F)c4n3)C2)C1
2. O=C1N(c2cnc3cnn(C4COC4)c3n2)CCC12CN(c1ccnc(C(F)(F)F)c1)C2
3. FC(F)Cn1ncc2ncc(N3CCC4(CCN(c5ccc(C(F)(F)F)nc5)CC4)CC3)nc21
4. FC(F)Cn1ncc2ncc(N3CCOC4(CCN(c5ccc(C(F)(F)F)cn5)CC4)C3)nc21
5. Cc1nc(N2CC3(CCN(c4ncc5c(C)nn(CC(F)(F)F)c5n4)CC3)C2)cc(C(F)(F)F)n1

10 to 50 µM
10 to 50 µM
< 10 µM
10 to 50 µM
10 to 50 µM
